# tested-target: T1, Aβ1-40 peptide
# T1 construct: synthetic peptide, not biotinylated; also called 1-40 (WT); beta amyloid 1-40
# T1 sequence (peptide, as listed by the source): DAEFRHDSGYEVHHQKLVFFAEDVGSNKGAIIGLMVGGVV
# assay-remarks: ELISA, nonbiotinylated peptide on plate; also: test concentration or dose not given here
measurement-label: A450 ELISA
Answers without a unit are incomplete; give the number and then its unit.

query: // lookup A450 ELISA for 6G light chain variant 5H (E97R) (antibody, V domains shown) VH: QVQLVQSGAEVKKPGASVKVSCKASGYTFTTYAIHWVRQAPGQGLEWMGFTSPYSGVSNYNQKFKGRVTMTRDTSTSTVYMELSSLRSEDTAVYYCARFDNYDRGYVRDYWGQGTLVTVS VL: DIVMTQSPDSLAVSLGERATINCRASESVDNDRISFLNWYQQKPGQPPKLLIYAATKQGTGVPDRFSGSGSGTDFTLTISSLQAEDVAVYYCQQSKRFPWSFGGGTKVEIKR
result: 2.6 A450

query: // lookup A450 ELISA for 6G light chain variant 2H (Q93K) (antibody, V domains shown) VH: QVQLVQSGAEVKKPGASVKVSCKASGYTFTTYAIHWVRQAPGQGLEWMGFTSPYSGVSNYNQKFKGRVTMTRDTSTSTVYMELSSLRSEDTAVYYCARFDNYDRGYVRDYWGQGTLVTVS VL: DIVMTQSPDSLAVSLGERATINCRASESVDNDRISFLNWYQQKPGQPPKLLIYAATKQGTGVPDRFSGSGSGTDFTLTISSLQAEDVAVYYCKQSKEFPWSFGGGTKVEIKR
result: 0.07 A450

query: // lookup A450 ELISA for 6G light chain variant 7F (Q94K) (antibody, V domains shown) VH: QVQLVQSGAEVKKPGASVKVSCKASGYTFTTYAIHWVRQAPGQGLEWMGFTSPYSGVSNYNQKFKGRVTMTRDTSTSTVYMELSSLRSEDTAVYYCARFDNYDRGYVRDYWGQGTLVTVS VL: DIVMTQSPDSLAVSLGERATINCRASESVDNDRISFLNWYQQKPGQPPKLLIYAATKQGTGVPDRFSGSGSGTDFTLTISSLQAEDVAVYYCQKSKEFPWSFGGGTKVEIKR
result: 0.12 A450

query: // lookup A450 ELISA for 6G heavy chain variant 3C (D103G) (antibody, V domains shown) VH: QVQLVQSGAEVKKPGASVKVSCKASGYTFTTYAIHWVRQAPGQGLEWMGFTSPYSGVSNYNQKFKGRVTMTRDTSTSTVYMELSSLRSEDTAVYYCARFDNYGRGYVRDYWGQGTLVTVS VL: DIVMTQSPDSLAVSLGERATINCRASESVDNDRISFLNWYQQKPGQPPKLLIYAATKQGTGVPDRFSGSGSGTDFTLTISSLQAEDVAVYYCQQSKEFPWSFGGGTKVEIKR
result: 2.3 A450

Data origin, for the record: patent US20090022728A1
